- Measurement protocol: photoluminescence quantum yield (fraction); solvent given as SMILES
- Test conditions: in CCO
Reported metric: photoluminescence quantum yield

CN(C)c1cc(C#N)c(N(C)C)c(C#N)c1    0.51
O=Cc1ccc(-c2cccc(-c3nc4ccccc4s3)c2O)o1    0.0846
c1cnc(-c2c3ccccc3c(-c3cncnc3)c3ccccc23)nc1    0.61
C=C(C)C(CN1C(=O)c2cccc3cccc(c23)C1=O)OO (stereo unspecified)    0.002
Nc1ccc2c(-c3ccccc3C(=O)[O-])c3ccc(=[NH2+])cc-3oc2c1    0.88
O=C1c2ccccc2-c2cccc(O)c21    0.0197
Nc1ncnc2c1c(-c1ccc3ccccc3c1)nn2[C@H]1C[C@H](O)[C@@H](CO)O1    0.14
CC1(C)C(/C=C/C=C/c2cc3ccc(O)cc3oc2=O)=[N+](CCCS(=O)(=O)[O-])c2ccc(S(=O)(=O)O)cc21    0.01
CCOC(=O)c1ccccc1-c1c2ccc(=[N+](CC)CC)cc-2oc2c1oc1cc(N)ccc12    0.501
Nc1ccc2c(c1)C(=O)NC2=O    0.21
CCC1=C(C)C2=C(C)c3c(I)c(I)c(I)n3[B-](F)(F)[N+]2=C1C    0.061

----------
- Measurement protocol: photoluminescence quantum yield (fraction); solvent given as SMILES
- Test conditions: in C1CCOC1
In plain terms, low photoluminescence quantum yield, meaning strictly below 0.4, gives Met, and everything else gives Not met.

COc1ccc(OC)c(C=O)c1    Met
N#Cc1c(N2CCCCC2)cc(-c2cccc3ccccc23)c2c1CCc1ccccc1-2    Not met
Cc1cc2c(o1)=CC1=C(C(F)(F)F)c3cc4oc(C)cc4n3[B-](F)(F)[N+]=21    Not met
O=C(c1ccc(/C(=C(/c2ccccc2)c2ccc(C(=O)c3ccc(-n4c5ccccc5c5ccccc54)cc3)cc2)c2ccccc2)cc1)c1ccc(-n2c3ccccc3c3ccccc32)cc1    Met
CN(C)c1ccc(/C=C/c2ccccn2)cc1    Met
O=C1/C(=C\c2ccc3oc4ccccc4c3c2)S(=O)(=O)c2ccccc21    Met
c1cc2ccc1-c1ccc(cc1)-c1ccc(s1)-c1ccc(cc1)-c1ccc(cc1)-c1ccc(s1)-c1ccc(cc1)-c1ccc(cc1)-c1ccc(s1)-c1ccc(cc1)-c1ccc(cc1)-c1ccc-2s1    Met
COc1c2ccccc2c(OC)c2c(C#Cc3ccccc3)c3cc4sccc4cc3c(C#Cc3ccccc3)c12    Met

----------
- Measurement protocol: photoluminescence quantum yield (fraction); solvent given as SMILES
- Test conditions: in CC#N
// bucketize photoluminescence quantum yield: low band = under 0.07, middle band = from 0.07 up to 0.3, high band = 0.3 and over

N#C/C(=C\c1ccncc1)c1nc(-c2ccc(Cl)cc2)cs1    middle band
Cc1ccc2nc3[nH]c(=O)[nH]c(=O)c3nc2c1    low band
C[n+]1cc2ccc3c[n+](C)cc4ccc(c1)c2c34    high band
Cc1c2ccc3c(C)[n+](C)ccc3c2cc[n+]1C    high band
CC1=CC(C)=[N+]2C1=C(c1ccc(N3CCCCC3)cc1)c1c(C)cc(C)n1[B-]2(F)F    low band
O=C([O-])c1ccccc1C1=c2cc3c4c(c2Oc2c1cc1c5c2CCCN5CCC1)CCC[N+]=4CCC3    high band
O=c1c2cc(F)ccc2nc2n1[B-](F)(F)[n+]1ccccc1-2    high band
CCN(CC)c1ccc(/C=N/c2cc3nc4ccccc4nc3cc2/N=C/c2ccc(N(CC)CC)cc2O)c(O)c1    middle band
F[B-]1(F)n2c(c3cccc4cccc2c43)=Nc2cccc[n+]21    high band
COc1ccc(C#Cc2nc3ccccc3nc2-c2cn(C)c3ccccc23)cc1    middle band
COc1ccc(-c2csc(/C(C#N)=C/c3ccc(C(F)(F)F)cc3)n2)cc1    low band
COc1ccc2cc(-c3ccc([N+](=O)[O-])cc3)ccc2c1    low band
CCN(CC)c1ccc2cc(/C=C/C(=O)/C=C(O)/C=C/c3cc4ccc(N(CC)CC)cc4oc3=O)c(=O)oc2c1    low band
O=c1c2ccccc2sc2ccccc12    low band
O=c1oc2cc3ccccc3cc2nc1-c1ccccc1    low band
N#Cc1ccc(N)cc1    middle band
COc1ccc(C#Cc2ccc(C#N)cc2)cc1OC    middle band
CCC1=C(C)C2=Cc3c4ccccc4c4n3[B-](c3ccc5cc6ccccc6cc5c3)(Oc3ccccc3-4)[N+]2=C1C (configuration not stated)    high band
c1ccc2c(c1)[nH]c1ccccc12    high band
CCCCC(CC)CN1C(=O)c2cccc3c(C#Cc4ccc(N(c5ccccc5)c5ccccc5)cc4)ccc(c23)C1=O (configuration not stated)    low band

Taken from the Deep4Chem optical property database.
